# reported melting point; entries follow
endpoint-name: melting point

• Cc1c(Cl)ccc(N(C)C(=O)CN2C(=O)c3ccccc3C2=O)c1Cl = 193 to 194 °C
• CC(=O)Nc1nc(C)c(S(=O)(=O)NC(CO)CO)s1 = 217 °C
• COc1cccc(Nc2c([N+](=O)[O-])cc(C(=O)O)cc2S(N)(=O)=O)c1 = 253 to 254 °C
• C[C@@H]1CN(C(=O)OC(C)(C)C)C[C@H]2Cc3cc(F)c(C=O)nc3N21 = 139 to 140 °C
• CN(C)CCCOc1ccc(C(=O)NN)cn1 = 81 to 83 °C

----------
# reported melting point; entries follow
endpoint-name: melting point

* COC1CN(C(=O)c2cnn(C)c2C(=O)Nc2ccn3nc(-c4cccc(F)c4)nc3c2)C1 | 255 to 257 °C
* O=C(Nc1cccc(SC(F)(F)F)c1)c1ccc2ccccc2c1O | 154 °C
* CN(C)Cn1nc(-c2ccncc2)n(-c2ccccc2)c1=S | 173 to 174 °C
* CC(C)(NC=O)c1ccc(C(F)(F)C(F)(F)c2ccccc2)cc1 | 116 to 117 °C
* O=S(=O)(c1ccccc1)C(F)(F)C(O)c1ccc(Cl)cc1 (stereo not given) | 100 to 102 °C

----------
# reported melting point; entries follow
endpoint-name: melting point

* COc1ccc(CCC2OC(=O)NC2=O)cc1O (stereo unspecified) | 121 to 122 °C
* O=[N+]([O-])c1cccc(-c2cccc([N+](=O)[O-])n2)n1 | 206 to 207 °C
* NNC1=Nc2ccc(Br)cc2C(c2ccccn2)=NC1 | 218 to 228 °C
* CC(=O)Oc1n[nH]c(=O)c2nc3cc(Cl)ccc3c(O)c12 | > 300 °C
* COCCCn1nnnc1-c1cc(-c2cccc(C(=O)OC)c2)c(OCc2ccccc2)cc1OCc1ccccc1 | 105 to 108 °C
* COc1ccc(Cc2cccc(C(Cl)(C3=NCCCN3)c3ccccc3)c2)cc1 (stereo unspecified) | 125 °C
* Clc1ccc(C(c2ccccc2)N2CCN(CCCn3cnc4ccccc43)CC2)cc1 (stereo unspecified) | 106 °C
* CC(C)(C)OC(=O)NCC(O)CN (stereo unspecified) | 77 to 79 °C
* CC(C)(C)OC(=O)n1ccc2cc([N+](=O)[O-])ccc21 | 135 to 137 °C
* CNC(=O)Nc1cccc(OC(=O)N(CCC#N)c2ccccc2)c1 | 147 °C
* CC(C)(C)c1cc2c(=O)[nH]cnc2o1 | 198 to 200 °C
* CS(=O)(=O)Nc1ccc(F)c(C(=O)CBr)c1 | 110 to 113 °C
* O=S(=O)(CC(F)(F)F)Oc1cccc(OS(=O)(=O)CC(F)(F)F)c1OS(=O)(=O)CC(F)(F)F | 73.5 to 75 °C
* CSc1ccc(C2=C(c3ccc(F)cc3)C(=O)OC2)c(F)c1 | 118 to 122 °C
* C#Cc1cc(Oc2cnc(N)nc2N)c(C#C)cc1OC | 163 to 164 °C
* CCOC(=O)C(C(=O)OCC)C(C#N)(c1ccc(F)cc1)c1ccc(F)cc1 | 90 to 91 °C
* NN1C=Nc2ccc(Cl)cc2C1(O)c1ccccc1Cl (stereo unspecified) | 198 °C
* CCOC(=O)c1c(C(F)(F)F)nc(OCC)c(C(=O)OC)c1OCC | 46 to 48 °C
* COc1cc(N)c(Cl)cc1C(=O)N[C@H]1CCN(CCCCNc2ncccn2)C[C@H]1OC (relative stereo) | 115 °C
* N#Cc1nc2cc3c(cc2[nH]1)OC(F)(Cl)C(F)(Cl)O3 (stereo unspecified) | > 230 °C
* CCOC(=O)c1cc2c(C)c(C)cc(NS(=O)(=O)c3cccs3)c2[nH]1 | 161 to 162 °C
* O=C(Nc1cccc(C(F)(F)F)c1)c1cccnc1NCc1cccc(O)c1 | 143 to 146 °C
* CCCC(=O)C(=CNc1ccc(O)cc1OC)C(=O)OCC | 140 to 142 °C
* CCCc1nc(S(C)(=O)=O)c(C(=O)O)n1Cc1ccc(-c2ccccc2S(=O)(=O)NC(=O)NCC)cc1 | 131 °C
* N#Cc1cc(NC(=O)c2cccn2-c2ccc(F)cc2)ccc1N1CCN(CCO)CC1 | 170 to 171 °C
* Cc1cc2cc(C#N)c(=O)[nH]c2cc1C | 300 °C
* C#Cc1ncn2c1CN(C)C(=O)c1ccccc1-2 | 191 to 193 °C
* Cc1cncc2cccc(S(=O)(=O)Cl)c12 | 113 to 118 °C
* CN(C)CCNNc1ccc(CO)c2oc3ccc(O)cc3c(=O)c12 | 122 to 123 °C
* NC(=NO)c1ncn2c1[C@@H]1CCCN1C(=O)c1c(Cl)cccc1-2 | 249 to 250 °C
* COc1ccc(C(=O)c2c[nH]c(=O)[nH]2)cc1OC | 257 to 259 °C
* O=C(C=P(c1ccccc1)(c1ccccc1)c1ccccc1)CCCOc1ccccc1 | 83 to 89 °C
* Cc1c(-c2ccc(F)cc2)nnn1CCC#Cc1ccccn1 | 130 to 131 °C
* CC(=O)Nc1nc2c(ncn2COC(COC(C)=O)COC(C)=O)c(=O)[nH]1 | 172 °C
* COc1ccccc1CN1CCc2cc(OCc3ccccc3)c(OC)cc2C1 | 85 to 86 °C
* COC(=O)C1(C(N)=O)C(C(N)=O)=NC(c2ccccc2)=C1N (stereo unspecified) | 177 to 179 °C
* OCCN1CCN(CC2CCn3c(nc4ccccc43)S2)CC1 (stereo unspecified) | 68 to 70 °C
* N#CC1(c2ccc(F)cc2)C=CC(N2CCN(c3cccnn3)CC2)CC1 (stereo unspecified) | 189 °C
* CN1C(=O)[C@H](NC(=O)/C=C/c2ccc(Br)cc2)N=C(c2ccccc2)c2ccccc21 | 121 to 124 °C
* N#Cc1ccc(C=NO)c([N+](=O)[O-])c1 | 162 to 163 °C
* COc1ccc(N2CC(CN3CCC(O)(c4ccc(Cl)cc4)CC3)OC2=O)cc1 (stereo unspecified) | 143 to 144 °C

These data points were gathered from a melting point compilation (Tetko et al.; mined from patent text by program, amines drawn as free bases though some values may be those of a salt).
